Reported GI50 values for a set of molecules
system: CAKI-1; assay: NCI tumour cell line growth inhibition, 48 h
The source made the active and inactive calls. Cut-off read from the data, not from the text of the source: active = GI50 up to about 1.1 µM and inactive = higher.

Lookup: Report GI50 for COC(=O)C[C@H](COCc1ccccc1)NC(=O)C[C@H](COCc1ccccc1)NC(=O)C[C@H](COCc1ccccc1)NC(=O)OC(C)(C)C tested on CAKI-1.
Found: > 100 µM (inactive)

Lookup: Report GI50 for Cc1ccc(NCC2(/N=C/c3ccccc3)OC(CO)C(O)C2O)cc1 (stereo not given) tested on CAKI-1.
Found: 46.6 µM (inactive)

Lookup: Report GI50 for OC(c1ccc(F)cc1)C(F)(F)c1nc2ccccc2o1 (stereo not given) tested on CAKI-1.
Found: 87.5 µM (inactive)

Lookup: Report GI50 for CCOC(=O)C(=O)Nc1c(CC)cccc1C(C)C tested on CAKI-1.
Found: > 100 µM (inactive)

Lookup: Report GI50 for CCCCc1nccc2c(C)c3[nH]c4ccccc4c3cc12 tested on CAKI-1.
Found: 2.59 µM (inactive)

###

test system: MDA-MB-435; assay: NCI tumour cell line growth inhibition, 48 h
The source made the active and inactive calls. Rule as the data show it: active = GI50 up to about 1.1 µM and inactive = higher.
Reported GI50 values for a set of molecules

Lookup: Report GI50 for NC1=NCC(CN2CCCCC2)O1 (configuration not stated) tested on MDA-MB-435.
Found: > 100 µM (inactive)

Lookup: Report GI50 for Cc1ccc(-n2c(O)c(C#N)c3[nH]nc(N)c3c2=O)cc1 tested on MDA-MB-435.
Found: > 100 µM (inactive)

Lookup: Report GI50 for NC1CC(=O)c2c(Cl)sc(Cl)c21 (configuration not stated) tested on MDA-MB-435.
Found: 4.62 µM (inactive)

###

system: NCI-H460; experiment: NCI tumour cell line growth inhibition, 48 h
Calls of active or inactive are those of the source. Rule as the data show it: active = GI50 up to about 1.1 µM and inactive = higher.
I would appreciate it if you answered using one of these outcomes: active, inactive

* Clc1ccc(Cl)c(SCCCN2CCNCC2)c1 | inactive
* O=[N+]([O-])c1cccc2nccc(NCCN3CCOCC3)c12 | inactive
* CCOC(=O)Nn1cnnc1C | inactive
* COC(=O)c1cc(CC(C)C)c2c(c1)[nH]c1ccccc12 | inactive

Lookup: Given CC(=O)c1sc(Nc2nnc(-c3ccc(-c4nnc(Nc5nc(C)c(C(C)=O)s5)o4)cc3)o2)nc1C , state the outcome it received in this test.
Found: inactive

Lookup: Given CC1(C)N=C(/C=N/O)C(C)(C)N1O , state the outcome it received in this test.
Found: inactive

Lookup: Given COc1ccc(-c2ccccc2)c(N/N=C2\CCCNC2=O)c1 , state the outcome it received in this test.
Found: inactive

Lookup: Given CCN(CC)C(=S)N/N=C1\C(=O)Nc2ccccc21 , state the outcome it received in this test.
Found: active

Lookup: Given CC(=O)Nc1ccc(C2C(C(=O)Nc3ccccc3)=C(C)NC(C)=C2C(=O)Nc2ccccc2)cc1 , state the outcome it received in this test.
Found: inactive

Lookup: Given O=C1CC2=CCCC2O1 (stereo unspecified) , state the outcome it received in this test.
Found: inactive

Lookup: Given C/C(=C/CC[C@]1(CO)CC[C@]2(CO)[C@H](CC[C@@H]3[C@@]4(C)CC[C@H](OC5OCC(O)C(O)C5OC5OC(CO)C(O)C(O)C5O)C(C)(C)[C@@H]4CC[C@]32C)[C@H]1O)CO (stereo partly specified) , state the outcome it received in this test.
Found: inactive

###

system: DU-145; assay: NCI tumour cell line growth inhibition, 48 h
Calls of active or inactive are those of the source. No stated cut-off is given here; in the data, active = GI50 up to about 1.1 µM and inactive = higher.
Reported GI50 values for a set of molecules

- CC(=O)OC[C@@]12Cc3ccc(C)c(O)c3[C@]1(C)[C@@H](OC(C)=O)[C@]1(O)[C@H]([C@@H](OC(=O)c3ccccc3)[C@@H](C)[C@H]1OC(C)=O)[C@H]2OC(C)=O: > 50 µM (inactive)
- Cc1ccc(S(=O)(=O)NC(CO)C(=O)O)cc1 (stereo not given): > 100 µM (inactive)
- CCNc1cc2c3c(c1)CCCN3CCC2: 28.1 µM (inactive)
- Cc1c(Cl)cccc1/N=N/C(=O)NNc1cccc(Cl)c1C: 14.4 µM (inactive)
- N=C(N)NCC1CCCCCCN1 (stereo not given): > 100 µM (inactive)
- Cc1ccc(S(=O)(=O)N2C[C@@H]3CC[C@]4(CO[Si](C)(C)C(C)(C)C)N[C@@H](c5ccccc5)[C@H]2[C@H]34)cc1: 45 µM (inactive)
- O=Cc1ccc(-c2ccc(-c3ccc(C=O)s3)o2)s1: > 100 µM (inactive)
- O=C1CCC[C@H]2O[C@@H](COC(=O)c3ccccc3)C[C@H]2O1: > 100 µM (inactive)
- Clc1ccc(Cl)c(SCCCN2CCNCC2)c1: 15.8 µM (inactive)

Turning to the following molecule.
Lookup: Entry under review: CCOC(=O)COc1cc(-c2ccccc2)nc2cc(F)ccc12 . Reported GI50?
Found: > 100 µM (inactive)

###

system: 786-0; experiment: NCI tumour cell line growth inhibition, 48 h
Activity calls are given as the source filed them. Rule as the data show it: active = GI50 up to about 1.1 µM and inactive = higher.
Reported GI50 values for a set of compounds

Some compounds with known GI50 results, for comparison:
- O=C1c2ccccc2C2(c3ccc(Cl)cc3)NCc3ccccc3CN12 (configuration not stated): 13.6 µM (inactive)
- Cn1cnc([N+](=O)[O-])c1Sc1nc(N)nc2c1ncn2[C@H]1C[C@H](O)[C@@H](CO)O1: 3.86 µM (inactive)
- Clc1ccc2cccc3c2c1C1OC3c2ccccc21 (configuration not stated): > 100 µM (inactive)

Lookup: Entry under review: CO/N=C1/C(n2[nH]c(=O)n(-c3ccccc3)c2=O)C2C=CC1n1c(=O)n(-c3ccccc3)c(=O)n12 (configuration not stated) . Reported GI50?
Found: > 100 µM (inactive)

Lookup: Entry under review: COC(=O)C1=C(C)N2[C@H](C(=O)O)CS[C@@]2(C)[C@H](C(=O)OC)[C@H]1c1cccc([N+](=O)[O-])c1 . Reported GI50?
Found: > 100 µM (inactive)

Lookup: Entry under review: OC1(c2ccccc2)C2CC=CC2C1(c1ccccc1)c1ccccc1 (configuration not stated) . Reported GI50?
Found: 61.7 µM (inactive)

Lookup: Entry under review: CCCCCOc1ccc(NC2=C(Cl)C(=O)c3c(O)ccc(O)c3C2=O)cc1 . Reported GI50?
Found: 1.6 µM (inactive)

###

Reported GI50 values for a set of compounds
system: K562; assay: NCI tumour cell line growth inhibition, 48 h
Active and inactive are the calls of the source. Cut-off read from the data, not from the text of the source: active = GI50 up to about 1.1 µM and inactive = higher.

Some compounds with known GI50 results, for comparison:
* CCCC(CCC)C(=O)O | 6810 µM (inactive)
* COC(=O)C1=C(C[S+]([O-])c2ccccc2[N+](=O)[O-])ON(C)C1c1ccccc1 (stereo not given) | 22.4 µM (inactive)

Lookup: Entry under review: Cc1ccc(-n2c(O)c(C#N)c3[nH]nc(N)c3c2=O)cc1 . Reported GI50?
Found: > 100 µM (inactive)

Lookup: Entry under review: O=c1[nH]c(=O)n([C@H]2CCCO2)cc1F . Reported GI50?
Found: 968 µM (inactive)

Lookup: Entry under review: COc1ccc(-c2cc(-c3cc(Cl)cc(Br)c3O)nc(O)n2)cc1 . Reported GI50?
Found: 14.1 µM (inactive)

Lookup: Entry under review: CCOC(=O)CCC(NC(=O)C(N)c1ccc([N+](=O)[O-])cc1)C(=O)NC(CCC(=O)OCC)C(=O)OCC (stereo not given) . Reported GI50?
Found: > 100 µM (inactive)

Lookup: Entry under review: NCc1ccc(-c2ccc(CN)s2)s1 . Reported GI50?
Found: > 100 µM (inactive)

Lookup: Entry under review: NC(C(=O)O)c1cc(O)no1 (stereo not given) . Reported GI50?
Found: > 100 µM (inactive)

Lookup: Entry under review: CSC(=O)C[C@@]12O[C@@H]([C@@H](C)C3CCC4[C@@H]5C(O)CC6=CC(=O)C=C[C@]6(C)C5CC[C@@]43C)C[C@](C)(O1)C(C)(C)O2 (stereo not given in full) . Reported GI50?
Found: 4.3 µM (inactive)

Lookup: Entry under review: CC(/C=C/c1ccc([N+](=O)[O-])o1)=N/N1CC(CN2CCOCC2)OC1=O (stereo not given) . Reported GI50?
Found: 16.9 µM (inactive)

###

tested on: CAKI-1; assay: NCI tumour cell line growth inhibition, 48 h
Calls of active or inactive are those of the source. No stated cut-off is given here; in the data, active = GI50 up to about 1.1 µM and inactive = higher.
I would appreciate it if you answered using one of these outcomes: active, inactive

Reference set (3 entries):
• CC1CC(=O)N2CCCNC2=C1C#N (stereo unspecified) = inactive
• COC(=O)/C(C#N)=C1\CCC(OC)N1C (stereo unspecified) = inactive
• COc1c(F)c(F)c(C(=O)/C=C2\Nc3ccccc3NC2=O)c(F)c1F = inactive

Lookup: Given NNC(=S)N/N=C(\c1nc2ccc(Cl)cc2nc1O)C(O)c1cccc([N+](=O)[O-])c1 (stereo unspecified) , state the outcome it received in this test.
Found: inactive

Lookup: Given C=CCn1c2c(sc1=S)C(S)NC=N2 (stereo unspecified) , state the outcome it received in this test.
Found: inactive

Lookup: Given C[C@H]1CC[C@@H]2[C@@H](C)C[C@H]3[C@@H]4C(C)(C)OC(=O)[C@]4(C)C(=O)[C@@]23C1=O , state the outcome it received in this test.
Found: inactive

Lookup: Given Cc1ccc2nc(NC(=O)C(=O)C(C#N)c3nc4ccccc4s3)sc2c1 (stereo unspecified) , state the outcome it received in this test.
Found: inactive

Lookup: Given NC1CC(Cl)c2c(Cl)sc(Cl)c21 (stereo unspecified) , state the outcome it received in this test.
Found: inactive

Lookup: Given O=C1C2C3C=CC(C2C(=O)N1CO)C1C2C(=O)N(CO)C(=O)C2C31 (stereo unspecified) , state the outcome it received in this test.
Found: inactive

Lookup: Given CC1(C)C=Cc2c(cc3oc4ccc5c(c4c(=O)c3c2O)C=CC(C)(C)O5)O1 , state the outcome it received in this test.
Found: inactive

Lookup: Given COc1ccc(/C=C/C(=O)c2sc(-c3cccnc3)nc2C)cc1 , state the outcome it received in this test.
Found: inactive

Lookup: Given COC(=O)c1oc([N+](=O)[O-])c(-c2ccccc2)c1-c1ccccc1 , state the outcome it received in this test.
Found: inactive
